# key: entry, value: pIC50
System: Primary human T-cells
protocol description: Primary Human T-Cell Proliferation Assay Stimulated with IL-2 (CellTiter-Glo)
Type: cell-based
test conditions: primary human T-cell proliferation stimulated with IL-2; read-out: IC50, Example 42
Just the number, please; pIC50 means minus log10 of the concentration in mol/L.

Cc1cc(COc2ccc(Nc3nc(Nc4cc(Cl)c(C)c(S(N)(=O)=O)c4)ncc3F)cc2C)no1 [Compound I-216] = 6.31

Which pIC50 is reported for this compound? N#CCC(=O)Nc1ccc(Nc2nc(Nc3cccc(S(N)(=O)=O)c3)ncc2F)cc1 [Compound I-78] 5.92

Need pIC50, item Cc1ccc(Nc2ncc(F)c(Nc3cccc(CNC(=O)C4CC4)c3)n2)cc1S(N)(=O)=O [III-40] 6.64

Quick check: pIC50 of Cc1ccc(Nc2ncc(F)c(Nc3ccc(OC4CCN(C)C4)cc3)n2)cc1S(N)(=O)=O (stereo not shown) [II-10] ? 6.06

Would you mind telling me what pIC50 value was observed for Cc1ccc(Nc2ncc(F)c(Nc3ccc(Cn4ccnc4)cc3)n2)cc1S(N)(=O)=O [III-82] ? 6.80

What pIC50 value was documented for this compound, CC(C)(C#N)Oc1ccc(Nc2nc(Nc3cccc(S(N)(=O)=O)c3)ncc2F)cc1 [Compound I-76] ? 6.71

----------
System: up-regulation of ICAM-1 (CD54) by IFNγ in A549 lung epithelial cells
protocol description: A549 Epithelial Line Stimulated with IFNγ (ICAM-1 surface expression, FACS)
Assay type: cell-based, human
test conditions: A549 epithelial line stimulated with IFNγ; ICAM-1 expression by FACS; read-out: IC50, Example 43
Listing: IC50 of selected compounds
Output spec: scalar in µM, unitless text.

Sample answers from the record:
Cc1noc(COc2cccc(Nc3nc(Nc4cccc(S(N)(=O)=O)c4)ncc3F)c2)n1 = 74.2
Cc1ccc(Nc2ncc(F)c(Nc3ccc(OCC#N)cc3)n2)cc1S(N)(=O)=O = 6.54
Cc1ccc(Nc2ncc(F)c(Nc3ccc(CC#N)cc3)n2)cc1S(N)(=O)=O = 12.3
Cc1ccc(Nc2ncc(Br)c(Nc3ccc(OCC#N)cc3)n2)cc1S(N)(=O)=O = 0.612
Cc1cc(Nc2nc(Nc3cccc(S(N)(=O)=O)c3)ncc2F)cc(C)c1OC(C)C(N)=O (racemic) = 12.8
Cc1cc(Nc2nc(Nc3ccc(S(N)(=O)=O)cc3)ncc2F)cc(C)c1OCC#N = 25.3
Cc1ccc(Nc2ncc(F)c(Nc3cc(C)c(OC(C)C(N)=O)c(C)c3)n2)cc1S(N)(=O)=O (racemic) = 10.4

If you can, please state the reported IC50 value of COc1cc(Nc2ncc(F)c(Nc3cc(C)c(OCC#N)c(C)c3)n2)ccc1S(N)(=O)=O . 5.5

----------
Test system: up-regulation of ICAM-1 (CD54) by IFNγ in A549 lung epithelial cells
protocol description: A549 Epithelial Line Stimulated with IFNγ (ICAM-1 surface expression, FACS)
Assay type: cell-based, human
test conditions: A549 epithelial line stimulated with IFNγ; ICAM-1 expression by FACS; read-out: IC50, Example 43
quantity name: IC50 (µM)
A number alone suffices; assume µM.

NS(=O)(=O)c1cccc(Nc2ncc(F)c(Nc3ccc(OCc4cccnc4)cc3)n2)c1 [Compound I-188] = 15.1
Cc1cc(COc2ccc(Nc3nc(Nc4cc(C)c(F)c(S(N)(=O)=O)c4)ncc3F)cc2)no1 [Compound I-217] = 36.6
Cc1cc(Nc2nc(Nc3cccc(S(N)(=O)=O)c3)ncc2F)cc(C)c1OCC#N [Compound I-26] = 4.23
Cc1cc(Nc2nc(Nc3cccc(S(N)(=O)=O)c3)ncc2F)cc(C)c1OCC(N)=O [Compound I-93] = 23.8
NS(=O)(=O)c1cccc(Nc2ncc(F)c(Nc3cccc(CNC(=O)C4CC4)c3)n2)c1 [III-39] = 4.15

Given Cc1cc(Nc2nc(Nc3cccc(S(N)(=O)=O)c3)ncc2F)ccc1OC(C)C(N)=O (racemic) [Compound I-120] , state its recorded IC50. 20

Please look up its IC50: CNS(=O)(=O)c1cc(Nc2ncc(F)c(Nc3cccc(OCc4nc(C)no4)c3)n2)ccc1C [Compound I-255] 39.3

What value of measured IC50 is listed for Cc1cc(COc2ccc(Nc3nc(Nc4cc(Cl)c(C)c(S(N)(=O)=O)c4)ncc3F)cc2F)no1 [Compound I-223] ? 9.09
